Data provenance is patent US8383817B2.

Target: DAT (Rattus norvegicus)
Construct: their brains removed to an ice-cooled dish for dissection of the caudate putamen; from tissue; host or cells: rat caudate putamen homogenate
Sequence (P23977 whole entry): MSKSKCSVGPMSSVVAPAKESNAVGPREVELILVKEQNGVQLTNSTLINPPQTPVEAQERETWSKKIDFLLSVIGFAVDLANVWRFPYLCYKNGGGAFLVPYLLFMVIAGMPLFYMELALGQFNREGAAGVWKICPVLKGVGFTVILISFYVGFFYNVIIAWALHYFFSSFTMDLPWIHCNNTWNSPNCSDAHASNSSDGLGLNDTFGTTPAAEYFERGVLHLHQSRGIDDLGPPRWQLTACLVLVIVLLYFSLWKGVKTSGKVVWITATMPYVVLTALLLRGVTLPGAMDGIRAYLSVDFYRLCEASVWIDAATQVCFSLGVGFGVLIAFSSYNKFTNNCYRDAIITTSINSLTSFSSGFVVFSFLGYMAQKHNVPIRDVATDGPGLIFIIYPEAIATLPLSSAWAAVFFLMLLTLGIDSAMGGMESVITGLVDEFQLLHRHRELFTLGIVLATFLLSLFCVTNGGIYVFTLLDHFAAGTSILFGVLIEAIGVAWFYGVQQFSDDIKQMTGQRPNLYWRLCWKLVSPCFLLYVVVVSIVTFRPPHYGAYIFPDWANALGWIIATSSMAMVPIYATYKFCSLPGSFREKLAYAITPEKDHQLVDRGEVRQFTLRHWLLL
Assay: biochemical
Assay type: binding
Details: read-out: DAT [3H]WIN 35,428 Ki ± SEM
pKi: −log10 of the molar value.
Would you please tag the item Met when its pKi is 8 or above, and Not met when it is below?

>  <Molecule>
CN1C2CCC1[C@@H](COC(=O)CCCc1ccc(N)cc1)[C@@H](OC(c1ccc(F)cc1)c1ccc(F)cc1)C2 (some centres unmarked)

>  <Classification>
Not met

$$$$
>  <Molecule>
COC(=O)/C=C/[C@@H]1C2CCC(C[C@@H]1OC(c1ccc(F)cc1)c1ccc(F)cc1)N2C (some centres unmarked)

>  <Classification>
Met

$$$$

----------
Target: muscarinic M1 receptor (Rattus norvegicus)
Construct: Membranes from frozen rat brains excluding cerebellum were thawed; from tissue; host or cells: rat brain (excluding cerebellum) membranes
Sequence (P08482 whole entry): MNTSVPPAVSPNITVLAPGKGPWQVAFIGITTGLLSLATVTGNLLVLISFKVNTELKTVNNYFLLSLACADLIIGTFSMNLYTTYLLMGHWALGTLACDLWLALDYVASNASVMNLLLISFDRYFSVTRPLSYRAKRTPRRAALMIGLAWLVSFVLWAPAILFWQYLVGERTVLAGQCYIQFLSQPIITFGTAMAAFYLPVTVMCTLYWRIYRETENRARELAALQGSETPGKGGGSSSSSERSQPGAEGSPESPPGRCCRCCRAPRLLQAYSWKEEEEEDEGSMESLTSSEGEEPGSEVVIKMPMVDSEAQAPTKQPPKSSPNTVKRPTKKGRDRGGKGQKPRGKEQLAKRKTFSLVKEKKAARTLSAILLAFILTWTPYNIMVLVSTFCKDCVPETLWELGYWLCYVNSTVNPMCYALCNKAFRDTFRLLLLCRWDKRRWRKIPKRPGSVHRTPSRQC
Assay: [3H]Pirenzepine Binding Assay, rat brain membranes
Conditions: ratio of respective Ki values; greater than 1 = DAT selective
Property Name: Binding selectivity DAT/M1

>  <Compound>
COC(=O)CC[C@@H]1C2CCC(C[C@@H]1OC(c1ccc(F)cc1)c1ccc(F)cc1)N2C (stereo partly shown) [Compound 6]

>  <Property Name>
Binding selectivity DAT/M1

>  <Measured>
831

$$$$
>  <Compound>
COC(=O)/C=C/[C@@H]1C2CCC(C[C@@H]1OC(c1ccc(F)cc1)c1ccc(F)cc1)N2C (stereo partly shown) [Compound 5]

>  <Property Name>
Binding selectivity DAT/M1

>  <Measured>
278

$$$$
>  <Compound>
CCOC(=O)[C@@H]1C2CCC(C[C@@H]1OC(c1ccc(F)cc1)c1ccc(F)cc1)N2C (stereo partly shown) [Compound 1b]

>  <Property Name>
Binding selectivity DAT/M1

>  <Measured>
275

$$$$
>  <Compound>
CCCCN1[C@@H]2CC[C@H]1C[C@@H](OC(c1ccc(F)cc1)c1ccc(F)cc1)C2 [Compound 12]

>  <Property Name>
Binding selectivity DAT/M1

>  <Measured>
41

$$$$
>  <Compound>
CN1C2CCC1[C@@H](CO)[C@@H](OC(c1ccc(F)cc1)c1ccc(F)cc1)C2 (stereo partly shown) [Compound 2]

>  <Property Name>
Binding selectivity DAT/M1

>  <Measured>
31

$$$$
>  <Compound>
C=CCN1C2CCC1[C@@H](C(=O)OCC)[C@@H](OC(c1ccc(F)cc1)c1ccc(F)cc1)C2 (stereo partly shown) [Compound 11]

>  <Property Name>
Binding selectivity DAT/M1

>  <Measured>
1036

$$$$

----------
Tested on: NET
Type: binding, rat
Details: ratio of respective Ki values; greater than 1 = DAT selective
The label Yes is reserved for Binding selectivity DAT/NET strictly under 90; No covers values equal to or above it.

>  <Molecule>
CCOC(=O)[C@@H]1C2CCC(C[C@@H]1OC(c1ccc(F)cc1)c1ccc(F)cc1)N2 (some centres unmarked) [Compound 9]

>  <System Name>
NET

>  <Classification>
Yes

$$$$
>  <Molecule>
COC(=O)/C=C/[C@@H]1C2CCC(C[C@@H]1OC(c1ccc(F)cc1)c1ccc(F)cc1)N2C (some centres unmarked) [Compound 5]

>  <System Name>
NET

>  <Classification>
Yes

$$$$
>  <Molecule>
CCCCN1C2CCC1[C@@H](C(=O)OCC)[C@@H](OC(c1ccc(F)cc1)c1ccc(F)cc1)C2 (some centres unmarked) [Compound 10]

>  <System Name>
NET

>  <Classification>
Yes

$$$$
>  <Molecule>
CN1C2CCC1[C@@H](CO)[C@@H](OC(c1ccc(F)cc1)c1ccc(F)cc1)C2 (some centres unmarked) [Compound 2]

>  <System Name>
NET

>  <Classification>
No

$$$$
>  <Molecule>
COC(=O)CC[C@@H]1C2CCC(C[C@@H]1OC(c1ccc(F)cc1)c1ccc(F)cc1)N2C (some centres unmarked) [Compound 6]

>  <System Name>
NET

>  <Classification>
No

$$$$
>  <Molecule>
C=CCN1C2CCC1[C@@H](C(=O)OCC)[C@@H](OC(c1ccc(F)cc1)c1ccc(F)cc1)C2 (some centres unmarked) [Compound 11]

>  <System Name>
NET

>  <Classification>
Yes

$$$$
>  <Molecule>
C=C[C@@H]1C2CCC(C[C@@H]1OC(c1ccc(F)cc1)c1ccc(F)cc1)N2C (some centres unmarked) [Compound 4]

>  <System Name>
NET

>  <Classification>
No

$$$$
>  <Molecule>
CCCCN1[C@@H]2CC[C@H]1C[C@@H](OC(c1ccc(F)cc1)c1ccc(F)cc1)C2 [Compound 12]

>  <System Name>
NET

>  <Classification>
No

$$$$
>  <Molecule>
C=CCN1[C@@H]2CC[C@H]1C[C@@H](OC(c1ccc(F)cc1)c1ccc(F)cc1)C2 [Compound 13]

>  <System Name>
NET

>  <Classification>
No

$$$$
